Target: T1, His-tagged CEACAM1 (human, UniProt P13688 35-428)
T1 construct: 45 kDa SPR analyte; also called CEACAM1-HIS; CEACAM1 analyte
T1 sequence: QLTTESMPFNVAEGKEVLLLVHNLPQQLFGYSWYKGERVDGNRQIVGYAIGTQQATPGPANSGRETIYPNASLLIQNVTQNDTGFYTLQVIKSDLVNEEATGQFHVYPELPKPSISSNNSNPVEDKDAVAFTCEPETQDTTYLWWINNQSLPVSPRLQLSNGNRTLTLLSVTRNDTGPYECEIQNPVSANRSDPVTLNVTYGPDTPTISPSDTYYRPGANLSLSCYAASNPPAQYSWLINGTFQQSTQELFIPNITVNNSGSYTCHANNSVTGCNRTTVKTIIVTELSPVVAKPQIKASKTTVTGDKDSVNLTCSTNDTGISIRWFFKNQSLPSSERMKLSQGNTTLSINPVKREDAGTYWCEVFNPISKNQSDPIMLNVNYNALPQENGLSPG
Assay: SPR single-cycle, supernatant IgG captured
measured-quantity: Kd (nM)

- binder: "CP09C02/CP08F05 (antibody, IgG4, V domains shown, IgG4 (S241P), kappa) VH: EVQLLESGGGLVQPGGSLRLSCAASEFTFSDHAMSWVRQAPGKGLEWVATISSGGTYTYYPDSVKGRFTISRDNSKNTLYLQMNSLKAEDTAMYYCARHGFDYDAAWFAYWGQGTLVTVSS VL: EIVLTQSPATLSLSPGERATLSCRANSAVSYMYWYQQKPGQAPRPWIYLTSNRATGVPARFSGSGSGTDYTLTISSLEPEDFAVYYCQQWTSNPPTFGQGTKLEIK"
  reported: 100
- binder: "CP09E05/CP08E01 (antibody, IgG4, V domains shown, IgG4 (S241P), kappa) VH: EVQLLESGGGLVQPGGSLRLSCAASGFIFSSHGMSWVRQAPGKGLEWVATISSGGTYTYYPDSVKGRFTISRDNSKNTLYLQMNSLKAEDTAMYYCARHGFDYDAAWFAYWGQGTLVTVSS VL: EIVLTQSPATLSLSPGERATLSCRANSAVSYMYWYQQKPGQAPRPWIYLTSNRATGVPARFSGSGSGTDYTLTISSLEPEDFAVYYCQQWTTFPPTFGQGTKLEIK"
  reported: 320
- binder: "VH1/CP08F05 (antibody, IgG4, V domains shown, IgG4 (S241P), kappa; also called Parent VH/CP08F05) VH: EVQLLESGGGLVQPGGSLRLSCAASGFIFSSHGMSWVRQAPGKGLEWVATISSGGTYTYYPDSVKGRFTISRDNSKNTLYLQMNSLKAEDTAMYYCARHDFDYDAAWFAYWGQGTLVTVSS VL: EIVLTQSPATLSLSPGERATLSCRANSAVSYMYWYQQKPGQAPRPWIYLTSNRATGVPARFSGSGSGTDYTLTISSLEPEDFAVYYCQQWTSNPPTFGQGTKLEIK"
  reported: 280
